# Tested target: T1, E. coli alkaline phosphatase Strep-tag®II fusion protein (E. coli, UniProt P00634 22-471 = phosphatase)
# T1 construct: mature; also called BAP-StrepII; BAP-StrepIII
# T1 sequence (P00634 22-471): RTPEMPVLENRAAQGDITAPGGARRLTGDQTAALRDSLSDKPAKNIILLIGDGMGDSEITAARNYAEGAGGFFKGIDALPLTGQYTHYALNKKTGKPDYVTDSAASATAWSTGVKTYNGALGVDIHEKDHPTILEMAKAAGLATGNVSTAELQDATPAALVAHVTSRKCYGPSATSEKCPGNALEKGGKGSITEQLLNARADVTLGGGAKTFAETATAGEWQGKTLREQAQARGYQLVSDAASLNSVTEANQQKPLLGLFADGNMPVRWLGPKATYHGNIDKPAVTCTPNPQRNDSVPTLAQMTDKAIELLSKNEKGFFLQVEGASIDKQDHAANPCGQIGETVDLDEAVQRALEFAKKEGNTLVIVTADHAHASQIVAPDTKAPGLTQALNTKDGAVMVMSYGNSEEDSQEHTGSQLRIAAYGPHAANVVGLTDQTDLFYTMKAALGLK
# Measurement description: ELISA, mutein coated, BAP-StrepII titrated
Property: KD(mutein“1”)/KDmutein; scope: individual binders
Please reply with the number alone, leaving off any unit.

Known KD(mutein“1”)/KDmutein results, listed for orientation:
>>> assay_value("mutein“1”-m101 (designed binder, Library 5 clone on mutein “1”) EAGITGTWYNQLGSTFIVTAGADGALTGTYVTARGNAESRYVLTGRYDSAPATDGSGTALGWTVAWKNNYRNAHSATTWSGQYVGGAEARINTQWLLTSGTTEYNAFLSTLVGHDTFTKVKPSAAS")
7.9
>>> assay_value("mutein“1”-m4 (designed binder, Library 3 clone on mutein “1”) EAGITGTWYNQLGSTFIVTAGADGALTGTYVTARGNAESRYVLTGRYDSAPATDGSGTALGWTVAWKNNYRNAHSATTWSGQYVGGAEARINTQWLLTSGTTEDNAGFSTLVGHDTFTKVKPSAAS")
12.2
>>> assay_value("mutein“1”-m302 (designed binder, Library 7 clone on mutein “1”, 118 and 119 deleted) EAGITGTWYNQLGSTFIVTAGADGALTGTYVTARGNAESRYVLTGRYDSAPATDGSGTALGWTVAWKNNYRNAHSATTWSGQYVGGAEARINTQWLLTSGTTEHWYSTLVGHDTFTKVKPSAAS")
22
>>> assay_value("mutein“1”-m45 (designed binder, Library 3 clone on mutein “1”) EAGITGTWYNQLGSTFIVTAGADGALTGTYVTARGNAESRYVLTGRYDSAPATDGSGTALGWTVAWKNNYRNAHSATTWSGQYVGGAEARINTQWLLTSGTTEYNAGFSTLVGHDTFTKVKPSAAS")
6.1
>>> assay_value("mutein“1”-m41 (designed binder, Library 3 clone on mutein “1”) EAGITGTWYNQLGSTFIVTAGADGALTGTYVTARGNAESRYVLTGRYDSAPATDGSGTALGWTVAWKNNYRNAHSATTWSGQYVGGAEARINTQWLLTSGTTEAWYSTLVGHDTFTKVKPSAAS")
8.5
>>> assay_value("mutein“1”-m212 (designed binder, Library 6 clone on mutein “1”, 118 and 119 deleted) EAGITGTWYNQLGSTFIVTAGADGALTGTYVTARGNAESRYVLTGRYDSAPATDGSGTALGWTVAWKNNYRNAHSATTWSGQYVGGAEARINTQWLLTSGTTEHWLSTLVGHDTFTKVKPSAAS")
6.5

We now examine a further binder.
Lookup: Please report the recorded KD(mutein“1”)/KDmutein for mutein“1”-m301 (designed binder, Library 7 clone on mutein “1”, 118 and 119 deleted) EAGITGTWYNQLGSTFIVTAGADGALTGTYVTARGNAESRYVLTGRYDSAPATDGSGTALGWTVAWKNNYRNAHSATTWSGQYVGGAEARINTQWLLTSGTTEHWMSTLVGHDTFTKVKPSAAS .
Found: 11
